B1: library; a variant is named by its letters at N, in order (parent)
chain: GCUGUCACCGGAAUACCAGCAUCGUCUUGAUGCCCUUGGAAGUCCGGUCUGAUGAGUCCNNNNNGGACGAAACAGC

variants of: B1; assay: normalized RNA/DNA level without ligand (relative to sTRSVctl = 100) (log10 (% of sTRSVctl)); higher = less ribozyme self-cleavage, higher mRNA level; conditions: HEK293T, reporter: mCherry (pCS4076), ligand present: no
measured-attribute: normalized RNA/DNA level without ligand (log10)

> print(dat)
                                      chain  experimental.value
1  GCUGUCACCGGAAUACCAGCAUCGUCUUGAUGCCCUUGGAAGUCCGGUCUGAUGAGUCCCCGAUGGACGAAACAGC [CCGAU]                1.64
2  GCUGUCACCGGAAUACCAGCAUCGUCUUGAUGCCCUUGGAAGUCCGGUCUGAUGAGUCCUGACUGGACGAAACAGC [UGACU]                1.87
3  GCUGUCACCGGAAUACCAGCAUCGUCUUGAUGCCCUUGGAAGUCCGGUCUGAUGAGUCCUUCAAGGACGAAACAGC [UUCAA]                1.86
4  GCUGUCACCGGAAUACCAGCAUCGUCUUGAUGCCCUUGGAAGUCCGGUCUGAUGAGUCCACCCGGGACGAAACAGC [ACCCG]                1.94
5  GCUGUCACCGGAAUACCAGCAUCGUCUUGAUGCCCUUGGAAGUCCGGUCUGAUGAGUCCUUAAUGGACGAAACAGC [UUAAU]                1.96
6  GCUGUCACCGGAAUACCAGCAUCGUCUUGAUGCCCUUGGAAGUCCGGUCUGAUGAGUCCAGAAAGGACGAAACAGC [AGAAA]                1.12
7  GCUGUCACCGGAAUACCAGCAUCGUCUUGAUGCCCUUGGAAGUCCGGUCUGAUGAGUCCUCUGUGGACGAAACAGC [UCUGU]                2.01
8  GCUGUCACCGGAAUACCAGCAUCGUCUUGAUGCCCUUGGAAGUCCGGUCUGAUGAGUCCACAUAGGACGAAACAGC [ACAUA]                1.72
